Source: the supplement of paper PMC10567573

B1: GLT8D2 (parent)
chain: QEAKLLHWNGRHKPWDFPSVHNDL

variants of: B1; experiment: protein stability index of a GFP-peptide fusion (GPS, HEK-293T) (PSI 1-6); higher = more stable; conditions: c terminus: a fixed tail appended;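 note: lentivirally expressed fusions sorted by FACS into six bins by GFP to DsRed ratio, PSI derived from sequencing read proportions per bin multiplied by bin number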
Consider the following variants; for each one, report its protein stability index.
Answer with a bare number; do not write a unit.

protein stability index reported for this variant F17E : 4.18

protein stability index reported for this variant W15V : 3.49

protein stability index reported for this variant G10W : 2.5

protein stability index reported for this variant H21I : 2.77

protein stability index reported for this variant H7F : 2.41

protein stability index reported for this variant W15M : 3.48

protein stability index reported for this variant A3W : 2.24

protein stability index reported for this variant S19C : 2.38

protein stability index reported for this variant G10E : 2.8

protein stability index reported for this variant F17K : 3.16

protein stability index reported for this variant E2I : 1.78
